system: DU-145; test: NCI tumour cell line growth inhibition, 48 h
Calls of active or inactive are those of the source. Cut-off read from the data, not from the text of the source: active = GI50 up to about 1.1 µM and inactive = higher.
Outcomes: y = active, n = inactive

- CC1(C)CN=C(Nc2cccc(C(F)(F)F)c2)S1: n
- COc1cc(NS(C)(=O)=O)ccc1N1Cc2c[nH]c3ccc4nccc1c4c23: n
- CCOC(=O)c1ccc(Nc2cnc3ccc(C(F)(F)F)cc3n2)cc1: n
- O=C1/C(=C/c2ccc(Cl)cc2)N=C(c2ccccc2)N1c1nc2ccccc2s1: n
- COc1cc2c(c(OC)c1OC)-c1ccc(SC)c(=O)cc1[C@@H](O)CC2: y

* * *

system: SK-MEL-5; test: NCI tumour cell line growth inhibition, 48 h
The source made the active and inactive calls. Rule as the data show it: active = GI50 up to about 1.1 µM and inactive = higher.
Outcomes: active, inactive

* C/C(=N\N=C(/S)N1CC2CCC(CC2)C1)c1ccncn1 | active
* C/C(=N\NC(=S)NC(C)(C)C)c1ccccn1 | active
* Clc1cccc(Cl)c1C1ON=C(c2ccccc2)N1C12CC3CC(CC(C3)C1)C2 (stereo unspecified) | inactive
* C/C(CC(=O)Nc1cc(Cl)c(Cl)cc1Cl)=N\NS(=O)(=O)c1ccc(C)cc1 | inactive
* O=NN1C(c2ccccc2)CC(=NO)CC1c1ccccc1 (stereo unspecified) | inactive
* Cc1[nH]c2ncn3nc(C(Cl)(Cl)Cl)nc3c2c1Cc1ccccc1 | inactive

* * *

tested on: RPMI-8226; assay: NCI tumour cell line growth inhibition, 48 h
The source made the active and inactive calls. Rule as the data show it: active = GI50 up to about 1.1 µM and inactive = higher.
Outcome codes: active, inactive

• CC1OC(OCC2OC(Oc3c(-c4ccc(O)cc4)oc4cc(O)cc(O)c4c3=O)C(OC3OC(C)C(O)C(O)C3O)C(O)C2O)C(O)C(O)C1O (centres undefined) = inactive
• O=C(O)/C=N/NC(=S)NC1CCCCC1 = inactive
• Cc1cc(=O)oc2cc(O)ccc12 [HYMECROMONE] = inactive
• O=C1C=C(Nc2nc(O)cc(C(=O)O)n2)c2ccccc2C1=O = inactive
• CCOC(=O)CC(C)C(C#N)(OP1(=O)OC(c2ccccc2)C(C)N1C)c1ccccc1 (centres undefined) = inactive
• CS(=O)(=O)OCCN1CCN(C(=O)c2ccc(Cl)c3c(Nc4ccc(S(=O)(=O)N=C(N)N)cc4)c4ccccc4nc23)CC1 = inactive
• COc1cc(C2C3=C(COC3=O)Oc3cc4c(cc32)OCO4)cc(OC)c1OC (centres undefined) = active
• Cc1ccc(-c2nc(C)c(C(=O)Nc3ccc(Cl)cc3)s2)cc1 = inactive
• C[C@@H]1CC2(C[C@@H](C)C3[C@@H](CC4(C)CCCC5C6=CC(O)(CC[C@]34C)OC6=CC(=O)OC5(C)C)O2)OC1=O (some centres undefined) = inactive

* * *

system: Malme-3M; test: NCI tumour cell line growth inhibition, 48 h
Activity calls are given as the source filed them. Rule as the data show it: active = GI50 up to about 1.1 µM and inactive = higher. Starred links: 1 amine or outer side, 2 acyl side, 3 side chain; linkers in the order of their positions; H or OH if unused. Positions of bridges follow the written chain, without caps; N, C: chain ends. Non-standard residues stand in square brackets, D forms with d. Residues, ends and D or L forms follow the SMILES beside them. Chains are numbered I, II in the order given. Actinocin(1to9) = Cc1c2oc3c(C)ccc(C(=O)[*:2])c3nc-2c(C(=O)[*:1])c(N)c1=O; NMeV = CN[CH](C(=O)O)C(C)C; Sar = CNCC(=O)O
Possible outcomes: active, inactive

- CC(CN(C)C)C(C#N)(c1ccccc1)c1ccccc1 (stereo not drawn): inactive
- N#C/C(=C/c1ccsc1)C(=O)c1ccccc1: inactive
- CCOC(=O)CC(C)C(C#N)(OP1(=O)OC(c2ccccc2)C(C)N1C)c1ccccc1 (stereo not drawn): inactive
- NC(=S)Nc1ccc2c(c1)oc1ccccc12: inactive
- [N-]=[N+]=NC1=C(c2ccccn2)C(=O)c2cccc3cccc1c23: inactive
- CS(=O)(=O)OCCN1CCN(C(=O)c2ccc(Cl)c3c(Nc4ccc(S(=O)(=O)N=C(N)N)cc4)c4ccccc4nc23)CC1: inactive
- CC1=C(C)CC(C#N)(C#N)C(C#N)(C#N)C1: inactive
- CCC(C)C1NC(=O)C(NC(=O)c2c3nc4c(C(=O)NC5C(=O)NC(C(C)CC)C(=O)N6CCCC6C(=O)N(C)CC(=O)N(C)C(C(C)C)C(=O)OC5C)ccc(C)c4oc-3c(C)c(=O)c2N)C(C)OC(=O)C(C(C)C)N(C)C(=O)CN(C)C(=O)C2CCCN2C1=O (stereo not drawn) (I: TIP[Sar][NMeV] / II: TIP[Sar][NMeV]; ester I:1-I:C, II:1-II:C; linker I:N-II:N via Actinocin(1to9); configuration not given here): active
- CC(C)=c1sc(=C(C)C)c2c1=NC(C)(C)N=2: inactive
- CCOC(=O)C1(CC)CCCCC(=O)N1 (stereo not drawn): inactive
- Cc1cc(=O)nc(S(=O)(=O)NC(=O)Nc2cccc(Cl)c2)[nH]1: inactive
- COC(=O)C1=C(O)C(C(=O)OC)[C@]2(O)[C@H](C(=O)OC)[C@H]1C[C@@H](c1ccccc1OC)[C@H]2C(=O)OC (stereo partly drawn): inactive
- CSc1c(C#N)c(O)n(-c2ccc(Cl)cc2)c(=O)c1C(C)=O: inactive
- C[C@H](NC(=O)OC1C2C=CC(O)C1CC2)c1ccccc1 (stereo partly drawn): inactive
- O=C(NCc1ccccc1)c1cc2ccccc2o/c1=N\c1cccc(C(F)(F)F)c1: inactive
- Cc1c(O)c(=O)ccn1C1OC(CO)C(O)C1O (stereo not drawn): inactive
- COc1cccc(C2C3=C(COC3=O)Oc3cc4c(cc32)OCO4)c1 (stereo not drawn): active
- Cc1ccc(-c2nc(C)c(C(=O)Nc3ccc(Cl)cc3)s2)cc1: inactive

* * *

The following compounds are shown together with reported GI50 values.
system: CCRF-CEM; assay: NCI tumour cell line growth inhibition, 48 h
Active and inactive are the calls of the source. Rule as the data show it: active = GI50 up to about 1.1 µM and inactive = higher.
RESULT_TYPE: GI50

- O=C1C(Cl)=C(Nc2ccc(S(=O)(=O)Nc3ccccn3)cc2)C(=O)c2ccccc21: 3.68 µM (inactive)
- Oc1ccc(-c2nc3ccc(Cl)cc3s2)cc1: 5.35 µM (inactive)
- O=C(O)CNS(=O)(=O)c1ccc(NC(=O)c2ccc([N+](=O)[O-])cc2)cc1: > 100 µM (inactive)
- COC(=O)C1(Cc2ccc3c(c2)CCC3)Cc2ccccc2C1O (stereo unspecified): 13.1 µM (inactive)
- O=C(OCc1ccccc1)N1c2cc([N+](=O)[O-])ccc2C(=O)N2CCC[C@H]2C1O (stereo partly specified): > 100 µM (inactive)
- Cc1cn([C@@H]2C[C@H]2CO)c(=O)[nH]c1=O: > 100 µM (inactive)

* * *

test system: HOP-92; experiment: NCI tumour cell line growth inhibition, 48 h
Active and inactive are the calls of the source. Rule as the data show it: active = GI50 up to about 1.1 µM and inactive = higher. Starred links: 1 amine or outer side, 2 acyl side, 3 side chain; linkers in the order of their positions; H or OH if unused. Positions of bridges follow the written chain, without caps; N, C: chain ends. Non-standard residues stand in square brackets, D forms with d. Residues, ends and D or L forms follow the SMILES beside them. Chains are numbered I, II in the order given. Actinocin(1to9) = Cc1c2oc3c(C)ccc(C(=O)[*:2])c3nc-2c(C(=O)[*:1])c(N)c1=O; NMeV = CN[CH](C(=O)O)C(C)C; Sar = CNCC(=O)O
Possible outcomes: active, inactive

- CCCCOP(=O)(OCCCC)/C(C#N)=C/c1ccc(C)o1: inactive
- O=C(C(=O)n1ccc2ccccc21)n1ccc2ccccc21: inactive
- CC(C)(C)[Si](C)(C)OCCCCC1CC2(S(=O)(=O)C3=CC=C=C=C3)ON1CC2S(=O)(=O)c1ccccc1 (configuration not stated): inactive
- CN1CN(c2ccccc2)C2(CCN(C(=O)OC(C)(C)C)CC2)C1=O: inactive
- NC1=NN(c2ccccc2)C(=O)C1C(=O)C(=O)Nc1ccc(Cl)c(Cl)c1 (configuration not stated): inactive
- C(=C\c1ccccc1)/COc1ccccc1C(N1CCOCC1)n1nc2ccccc2n1 (configuration not stated): inactive
- Clc1cccc(Cl)c1C1ON=C(c2ccccc2)N1C12CC3CC(CC(C3)C1)C2 (configuration not stated): inactive
- CSc1nc(NC(C)C)c2c(n1)Sc1nc3ccccc3n1N=C2: inactive
- CCOc1ccc(Nc2nc(C)c(C(=O)/C=C/c3ccc(Cl)cc3Cl)s2)cc1: inactive
- O=[N+]([O-])c1cccc(C(O)/C(=N/O)c2nc3ccc(Cl)cc3nc2O)c1 (configuration not stated): inactive
- Nc1cccc(CCN2CCN(CCCc3ccccc3)CC2)c1: inactive
- O=Cc1c(O)ccc2ccc(O)c(-c3c(O)ccc4ccc(O)cc34)c12: inactive
- CCC(C)C1NC(=O)C(NC(=O)c2c3nc4c(C(=O)NC5C(=O)NC(C(C)CC)C(=O)N6CCCC6C(=O)N(C)CC(=O)N(C)C(C(C)C)C(=O)OC5C)ccc(C)c4oc-3c(C)c(=O)c2N)C(C)OC(=O)C(C(C)C)N(C)C(=O)CN(C)C(=O)C2CCCN2C1=O (configuration not stated) (I: TIP[Sar][NMeV] / II: TIP[Sar][NMeV]; ester I:1-I:C, II:1-II:C; linker I:N-II:N via Actinocin(1to9); configuration not given here): active
- COC(=O)CCC(=O)CC(=O)C(=O)Nc1ccc(F)cc1: inactive
- C[C@]12Cc3conc3C(O)=C1CC[C@@H]1C2CC[C@@]2(C)C1CC[C@]2(C)O (some centres not stated): inactive
- NS(=O)(=O)c1nnc(NC(=O)N(c2ccccc2)c2ccccc2)s1: inactive
- O=C(O)C1=C/C(=C(/c2ccccc2)c2cc(C(=O)O)c(O)c3ccccc23)c2ccccc2C1=O: inactive
- COc1ccc(P2(=S)SP(=S)(c3ccc(Cl)cc3)S2)cc1 (configuration not stated): inactive
- Cc1cc2oc(=N)c(C#N)c(C)c2cc1C: inactive
- Cc1nc2c(sc3nc4c(cc32)CCC4)c(=O)o1: inactive
- S=C1NNC(=S)NN1: active
- CC1=C(Br)C(=O)C(C)=C(Br)C1=O.Cc1c(O)c(Br)c(C)c(O)c1Br: inactive
- CC(=O)OCC1OC(c2c(OC(C)=O)cc(C)c3c(=O)cc(/C(C(C)=O)=C(\C)O)oc23)C(OC(C)=O)C(OC(C)=O)C1OC(C)=O (configuration not stated): inactive
- COC(=O)C1=C(C(=O)OC)C2OC1c1cc3ccccc3cc12: inactive
- CCOC(=O)/C(=C\c1ccc(N(C)C)cc1)S(=O)(=O)C(F)(F)C(F)(F)C(F)(F)C(F)(F)F: inactive
- C=C1CCC2[C@@H](CCC3[C@]2(C)CCC[C@]3(C)C(=O)OC)[C@@H]1CC=O (some centres not stated): inactive
- CC1OC(=O)C(C(C)C)NC(=O)C(C(C)C)OC(=O)C(C(C)C)NC(=O)C(C)OC(=O)C(C(C)C)NC(=O)C(C(C)C)OC(=O)C(C(C)C)NC(=O)C(C)OC(=O)C(C(C)C)NC(=O)C(C(C)C)OC(=O)C(C(C)C)NC1=O (configuration not stated): active
- CC1=C(Cl)C[C@@H](/C(C)=C\Cl)O[C@@]1(O)C(Br)Br: inactive
- COC(=O)C1=C(C(=O)OC)C2(C(=O)OC)OC1(OC)C(C1(C(=O)OC)C(C(=O)OC)=C1C(=O)OC)=C2C(=O)OC (configuration not stated): inactive
- COc1c(Cl)c(=O)oc2ccc(Cl)cc12: inactive
- C=C1CCC2[C@@H](CCC3[C@]2(C)CCC[C@]3(C)C(=O)OC)C1CC=O (some centres not stated): inactive
- CC(C)(C)OC(=O)N1CCC[C@H]1CSC[C@@H]1CCCN1C(=O)OC(C)(C)C: inactive
- Cc1c(C)n(COCCO)c2ncnc(N)c12: inactive
- Clc1ccc(OCc2nnc(CCCCCCCCc3nnc(COc4ccc(Cl)cc4)o3)o2)cc1: inactive
- O=C(O)CN(c1ccc(F)cc1)S(=O)(=O)c1ccccc1: inactive
- CCOC(=O)NNC1(SC)NC(=O)c2c(cc(Cl)oc2=O)O1 (configuration not stated): inactive
- COc1cc(C2SCC(=O)N2c2ccc(NC(C)=O)cc2)cc(OC)c1OC (configuration not stated): inactive

Values compiled from ChEMBL document CHEMBL1201862.
